- System: PSMA+LNCaP cells
- Assay: Cell surface binding and internalization of 68Ga-labeled compounds
- Assay type: cell-based
- Reported Conditions: specific uptake by blockage with 500 μM 2-PMPA, mean ± SD (n = 3)
Starred links: 1 amine or outer side, 2 acyl side, 3 side chain; linkers in the order of their positions; H or OH if unused. Non-standard residues stand in square brackets, D forms with d. Residues, ends and D or L forms follow the SMILES beside them. ξ: configuration not given here. *: point of attachment. DOTA = O=C(O)CN1CCN(CC(=O)O)CCN(CC(=O)*)CCN(CC(=O)O)CC1; EuK = O=C(O)CC[C@H](NC(=O)N[C@@H](CCCCN*)C(=O)O)C(=O)O; X2 = O=C(O)CCC(NC(=O)NC(CCCCN*)C(=O)O)C(=O)O; 2Nal = N[C@@H](Cc1ccc2ccccc2c1)C(=O)O; ξ2Nal = NC(Cc1ccc2ccccc2c1)C(=O)O; Trx = NC[C@H]1CC[C@H](C(=O)O)CC1; X1 = O=C(C1CCC(CN[*:1])CC1)[*:2]; Sar = CNCC(=O)O
Quantity Measured: Specifically internalized (% AR/10^5 cells)
One number for each entry, in % AR/10^5 cells.

// solved cases for Specifically internalized follow
| Compound | Specifically internalized (% AR/10^5 cells) |
| --- | --- |
| CN(CC(=O)NCC1CCC(C(=O)NC(Cc2ccc3ccccc3c2)C(=O)NCCCCC(NC(=O)NC(CCC(=O)O)C(=O)O)C(=O)O)CC1)C(=O)CN(C)C(=O)CN(C)C(=O)CN(C)C(=O)CN(C)C(=O)CN(C)C(=O)CN(C)C(=O)CN(C)C(=O)CN(C)C(=O)CN(C)C(=O)CN(C)C(=O)CN(C)C(=O)CN(C)C(=O)CN(C)C(=O)CN(C)C(=O)CN1CCN(CC(=O)O)CCN(CC(=O)O)CCN(CC(=O)O)CC1 (centres unmarked) | 2.03 |
| CN(CC(=O)NC[C@H]1CC[C@H](C(=O)N[C@@H](Cc2ccc3ccccc3c2)C(=O)NCCCC[C@H](NC(=O)N[C@@H](CCC(=O)O)C(=O)O)C(=O)O)CC1)C(=O)CN(C)C(=O)CN(C)C(=O)CN1CCN(CC(=O)O)CCN(CC(=O)O)CCN(CC(=O)O)CC1 [DOTA-Sar3-Chx-2-NaI-Lys-urea-Glu] ({DOTA}-[Sar][Sar][Sar][Trx][2Nal]-EuK) | 2.20 |

I'm hoping you can list Specifically internalized for every compound here, please.
1. CN(CC(=O)NCC1CCC(C(=O)NC(Cc2ccc3ccccc3c2)C(=O)NCCCCC(NC(=O)NC(CCC(=O)O)C(=O)O)C(=O)O)CC1)C(=O)CN(C)C(=O)CN(C)C(=O)CN(C)C(=O)CN(C)C(=O)CN(C)C(=O)CN(C)C(=O)CN(C)C(=O)CN(C)C(=O)CN(C)C(=O)CN1CCN(CC(=O)O)CCN(CC(=O)O)CCN(CC(=O)O)CC1 (centres unmarked)
2. CN(CC(=O)NCC1CCC(C(=O)NC(Cc2ccc3ccccc3c2)C(=O)NCCCCC(NC(=O)NC(CCC(=O)O)C(=O)O)C(=O)O)CC1)C(=O)CN(C)C(=O)CN(C)C(=O)CN(C)C(=O)CN(C)C(=O)CN1CCN(CC(=O)O)CCN(CC(=O)O)CCN(CC(=O)O)CC1 (centres unmarked) [DOTA-Sar5-Chx-2-NaI-Lys-urea-Glu] ({DOTA}-[Sar][Sar][Sar][Sar][Sar][X1][ξ2Nal]-X2)
3. O=C(O)CC[C@H](NC(=O)N[C@@H](CCCCNC(=O)[C@H](Cc1ccc2ccccc2c1)NC(=O)[C@H]1CC[C@H](CNC(=O)CN2CCN(CC(=O)O)CCN(CC(=O)O)CCN(CC(=O)O)CC2)CC1)C(=O)O)C(=O)O [PSMA-617, reference compound]

1. 2.31
2. 1.99
3. 2.55
